Target: T1, human CXCR5 (human, UniProt P32302 1-372)
T1 sequence: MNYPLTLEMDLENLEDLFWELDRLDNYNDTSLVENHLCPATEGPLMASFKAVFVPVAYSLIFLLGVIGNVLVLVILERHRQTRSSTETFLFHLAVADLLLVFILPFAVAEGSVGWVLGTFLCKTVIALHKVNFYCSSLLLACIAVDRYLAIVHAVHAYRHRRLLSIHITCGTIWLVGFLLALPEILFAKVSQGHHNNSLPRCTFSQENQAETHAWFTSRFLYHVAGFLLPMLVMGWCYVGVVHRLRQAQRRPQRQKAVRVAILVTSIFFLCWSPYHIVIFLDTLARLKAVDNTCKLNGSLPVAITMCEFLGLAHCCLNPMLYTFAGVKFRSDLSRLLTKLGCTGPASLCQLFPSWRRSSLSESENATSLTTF
Assay: cell-based or functional assay
// Ca2+ flux IC50 lookup, one value per entry

binder: 16D7 (reference antibody) (antibody, human IgG1, kappa, V domains shown, fucosylated; also called S16D7) VH: QVQLKESGPGLVAPSESLSITCTVSGFSLIDYGVNWIRQPPGKGLEWLGVIWGDGTTYYNPSLKSRLSISKDNSKSQVFLKVTSLTTDDTAMYYCARIVYWGQGTLVTVSA VL: DIVMTQAAPSVAVTPGASVSISCRSSKSLLHSSGKTYLYWFLQRPGQSPQLLIYRLSSLASGVPDRFSGSGSGTAFTLRISRVEAEDVGVYYCMQHLEYPYTFGGGTKLEIKR
unit-abbreviation: nM
Ca2+ flux IC50: 11.4
--
binder: mouse 11G2 (antibody, V domains shown, mouse hybridoma mAb; also called 11G2 (hybridoma)) VH: EVKLVESGGGLVQPGGSLRLSCATSGFTFTDFYMSWVRQPPGRALEWLGFIRNKANGYTTEYSASVKGRFTISRDNSQSILYLQMNTLRAGDSATYYCVRVYGSTLHYWGQGTILTVSS VL: DVVVTQSPDSLAVSLGQRATISCRASESVEYHGTSLMHWYQQKPGQPPKLLIYAASNVESGVPARFSGSGSGTDFSLNIHPVEEGDIAMYFCQQSRKVPWTFGGGTKLEIK
unit-abbreviation: nM
Ca2+ flux IC50: 5.93
--
binder: mouse 5H7 (antibody, V domains shown, mouse hybridoma mAb; also called 5H7 (hybridoma)) VH: EVKLVESGGGLVQPGDSLRLSCATSGFTFTDFYMSWVRQPPGRALEWLGFIRNKANGYTTEYSASVKGRFTISRDNSQSILYLQMNTLRAGDSATYYCVRVYGSTLHYWGQGTILTVSS VL: DVVVTQSPDSLAVSLGQRATISCRASESVEYHGTSLMHWYQQKPGQPPKLLIYAASNVESGVPARFSGSGSGTDFSLNIHPVEEGDVSMFFCQQSRKVPWTFGGGTKLEIK
unit-abbreviation: nM
Ca2+ flux IC50: 5.55
--
binder: mouse 41A10 (antibody, V domains shown, mouse hybridoma mAb; also called 41A10 (hybridoma)) VH: EVQLVESGGDLVKPGGSLKLSCAASGFTFRSYGMSWVRQTPDKRLEWVATISSGGTYTFYPDILKGRITISRDNAKNTLYLQMSNLKSEDTAMYYCARRGEDYRGALEHWGQGTSVTVSS VL: QIVLTQSPAVMSASPGEKVTMTCSASSSVNYIHWYQQKSGTSPKRWIYETSRLASGVPVRFSGSGSGTSYSLTISTMEAEDAATYYCQQWSSNPLTFGAGTKLELK
unit-abbreviation: nM
Ca2+ flux IC50: 14.7
